# System: NCI-H460 lung
# experiment.summary: NCI-60 one-dose screen, 48 h
# stated.conditions: 10 µM
About 83,000 compounds went through this panel and 20% of them were active in at least one assay; those are over-represented in the sample as a whole. Active and inactive are the calls of the source. Rule for the calls: active = growth percent below 10; inactive = the rest.
Use one of these outcomes when replying: active, inactive

Consider the worked cases shown below.
compound: COc1ccccc1N1CCCSC1=Nc1ccccc1
class.assignment: inactive
//
compound: COc1ccc2cc(-c3nc4ccccc4s3)c(Cl)nc2c1OC
class.assignment: inactive
//
compound: CN(C)CCOc1ccccc1NC1=C(Cl)C(=O)C(Nc2ccccc2OCCN(C)C)=C(Cl)C1=O
class.assignment: inactive
//
compound: CN1CCN(CCCn2c(=O)c3sc4ncccc4c3n3nnc(-c4ccccc4)c23)CC1
class.assignment: active
//
compound: CCN(CC)CCCC(Nc1c2ccc(Cl)cc2nc2ccc(OC)cc12)c1ccc(F)cc1 (centres undefined)
class.assignment: active

Can you look up the reported call for `CCOC(=O)c1cc(C(=O)c2ccc(Cl)cc2)n2ccc(-c3cc[n+](CC(=O)c4ccc(OC)cc4)cc3)cc12` for me?
active

Can you look up the reported call for COc1cc2c(cc1OC)C(C(CCCCCC(CCC(C)C)C1NCCc3cc(OC)c(OC)cc31)CCC(C)C)NCC2 (centres undefined) for me?
active

Can you look up the reported call for `CC(C)(C)OC(=O)N1CCc2c(sc3ncnc(N/N=C/c4cccc(Br)c4)c23)C1` for me?
inactive

Can you look up the reported call for `COc1cc(/C=C/c2cc(/C=C/c3ccc(O)c(OC)c3)n(C(=O)Nc3ccccc3Cl)n2)ccc1O` for me?
active

Can you look up the reported call for `CCOC(=O)c1cc(C(=O)c2cc(OC)cc(OC)c2)n2nc(C)ccc12` for me?
inactive

Can you look up the reported call for `COc1cc(C(=O)n2nc(-c3cc(OC)c(OC)c(OC)c3)nc2N)cc(OC)c1OC` for me?
inactive
